System: CCRIS mutagenicity, Ames/micronucleus/aberration tests
Experiment: CCRIS mutagenicity studies
Settings: Test System: AMES SALMONELLA TYPHIMURIUM; Strain/Indicator: TA1537; Metabolic Activation: RAT, LIVER, S-9, AROCLOR 1254; Method: STANDARD PLATE
Activity calls are given as the source filed them. No rule for the calls is given here.
Possible outcomes: T = active, F = inactive

COMPOUND: CC(C)NNC(=O)c1ccncc1
CLASSIFICATION: F

COMPOUND: O=c1[nH]c(=O)n([C@H]2C[C@H](O)[C@@H](CO)O2)cc1CO
CLASSIFICATION: F

COMPOUND: Cc1cc(N)c([N+](=O)[O-])c(C)c1N
CLASSIFICATION: F

COMPOUND: O=S(=O)(O)c1cccc2cccnc12
CLASSIFICATION: F

COMPOUND: O=C(CCCN1CCN(c2ccccn2)CC1)c1ccc(F)cc1
CLASSIFICATION: F

COMPOUND: NCc1cccc(CN)c1
CLASSIFICATION: F

COMPOUND: Cc1ccc2cc3c(ccc4ccccc43)c3c2c1CC3
CLASSIFICATION: T

COMPOUND: CCOC(=O)NNc1nncc2ccccc12
CLASSIFICATION: F

COMPOUND: CCOc1ccccc1OCC1CNCCO1 (configuration not stated)
CLASSIFICATION: F

COMPOUND: CCn1cc(C(=O)O)c(=O)c2cc(F)c(-c3ccncc3)c(F)c21
CLASSIFICATION: F

COMPOUND: CC(C)CCON=O
CLASSIFICATION: F

COMPOUND: C[C@H]1CCCC(=O)CCC/C=C/c2cc(O)cc(O)c2C(=O)O1
CLASSIFICATION: F

COMPOUND: C=C(C)C(=O)OCCOC(=O)C(=C)C
CLASSIFICATION: F

COMPOUND: N[C@@H]1C[C@H]1c1ccccc1
CLASSIFICATION: F

COMPOUND: CN(C)CCCN1c2ccccc2Sc2ccc(Cl)cc21
CLASSIFICATION: F

COMPOUND: O=c1[nH]c2ccccc2n1C1CCN(CCCC(c2ccc(F)cc2)c2ccc(F)cc2)CC1
CLASSIFICATION: F

COMPOUND: Nc1ccc(Cl)c(C(F)(F)F)c1
CLASSIFICATION: F

Data provenance is PubChem BioAssay AID1259407.
